Tested on: UO-31 renal
assay.procedure: NCI tumour cell line growth inhibition, 48 h
assay.endpoint: TGI

Below, 3 compounds whose answers are already recorded.
Cc1ccc2nc(CN(CCO)CCO)cc(=O)n2c1    > 100 µM
Cc1ccc(N=C2OP(=O)(Nc3ccc(C)cc3)Oc3ccccc32)cc1 (stereo unspecified)    > 100 µM
CN=C1CN=C(OP(=O)(N2CCOCC2)N2CCOCC2)c2cc(Cl)ccc2N1    > 100 µM

Hi, could you look up TGI for each item in my list?
1. C/C(=C\C(C[C@](C)(O)C(O)CCC#C[Si](C)(C)C)S(=O)(=O)c1ccccc1)CC/C=C/CO[Si](C)(C)C(C)(C)C (stereo partly specified)
2. CC(=O)OC1=C2CC[C@@H]3C(CC[C@@]4(C)C3CC[C@@H]4OC(C)=O)[C@@]2(C)CC(C#N)C1=O (stereo partly specified)
3. O=C1/C(=C/C=C/c2ccccc2)N=C(c2ccccc2)N1c1ccc(S(=O)(=O)Nc2nccs2)cc1
4. O=C1NC(=O)C(C(c2ccc([N+](=O)[O-])cc2)C2C(=O)NC(=O)NC2=O)C(=O)N1
5. O=[N+]([O-])c1cccc(C2=NN(c3ccccc3)C3c4ccccc4OCC23)c1 (stereo unspecified)
6. CC(C)=NOC(=O)OC[C@H]1O[C@@H](n2cnc3c(N)ncnc32)C(O)C1O (stereo partly specified)

stdout:
36.4 µM
> 100 µM
29.9 µM
> 100 µM
> 100 µM
> 100 µM

Hi, could you look up TGI for each item in my list?
1. Cc1cn(C2CC(N=[N+]=[N-])C(CO)O2)c(=O)n(CCCCBr)c1=O (stereo unspecified)
2. COc1cc(NS(C)(=O)=O)ccc1Cc1c2ccccc2nc2ccccc12
3. CNC(=O)N1CN(c2ccccc2)C2(CCN(Cc3ccccc3)CC2)C1=O
4. CC(C)(C)OC(=O)NCCC1CNc2ccccc21 (stereo unspecified)
5. CSc1nc(-c2ccccc2)nc(C(C#N)C#N)n1
6. O=C(CC1(O)C(=O)Nc2ccccc21)c1ccc(Cl)cc1Cl (stereo unspecified)

stdout:
1. > 100 µM
2. 1.02 µM
3. > 100 µM
4. > 100 µM
5. > 100 µM
6. > 100 µM

====

Test system: 786-0 renal
assay.procedure: NCI tumour cell line growth inhibition, 48 h
Exercise: state measured TGI for each of the molecules provided.

Below, 5 molecules whose answers are already recorded.
COc1ccc(C(=O)CCN(C)C)c2ccccc12    27.4 µM
COc1ccc2c(c1)C(=O)c1c-2c(N2CCN(C(=O)CCNCCNCCN)CC2)nc2ccccc12    6.62 µM
C[N+](C)(C)C1CC([N+](C)(C)C)C2c3ccccc3C21 (stereo unspecified)    > 100 µM
COc1ccc2nc3cc([N+](=O)[O-])ccc3c(Nc3ccc(S(=O)(=O)Nc4ncccn4)cc3)c2c1    > 100 µM
CC(C)=Cc1cccc2[nH]c(O)c(N=Nc3ccc(S(N)(=O)=O)cc3)c12    > 25 µM

Hi, could you look up TGI for each item in my list?
1. Cc1[nH]c2ccccc2c1C1=NO/C(=N\O)C(c2c(C)[nH]c3ccccc23)C1 (stereo unspecified)
2. Cc1c(C(=O)Nc2ccccc2)nnn1-c1ccnc2cc(C(F)(F)F)ccc12
3. CCc1ccc(Cc2ccc(CC)c(NC(=O)C(=O)C3NC(=S)NC3=O)c2CC)c(CC)c1NC(=O)C(=O)C1NC(=S)NC1=O (stereo unspecified)

stdout:
["> 100 µM", "> 100 µM", "> 100 µM"]

====

Exercise: state measured TGI for each of the molecules provided.
Tested on: SK-OV-3 ovarian
assay.procedure: NCI tumour cell line growth inhibition, 48 h

Below, 3 molecules whose answers are already recorded.
CNC(=O)N1CN(c2ccccc2)C2(CCN(Cc3ccccc3)CC2)C1=O    > 100 µM
CC1(C)CCc2c(c(N=Nc3ccccc3F)c3ccccc3c2O)O1    75.9 µM
FC(F)(F)c1nc(SCc2ccc(Cl)cc2)n[nH]1    > 100 µM

Hi, could you look up TGI for each item in my list?
1. C#CCOC(=O)/C=C/C(=O)Oc1ccc2c(C)cc(=O)oc2c1
2. CC(C)=NOC(=O)OC[C@H]1O[C@@H](n2cnc3c(N)ncnc32)C(O)C1O (stereo partly drawn)
3. CC(C)(CCl)NC(=O)c1cccc(C(=O)NC(C)(C)CCl)n1
4. O=C(c1ccccc1)N(CCCCNC(=O)C(F)(F)F)CCCNC(=O)C(F)(F)F
5. S=C1SCN(Cc2ccccc2)CN1Cc1ccccc1
6. CC(=O)OC1=C2CC[C@@H]3C(CC[C@@]4(C)C3CC[C@@H]4OC(C)=O)[C@@]2(C)CC(C#N)C1=O (stereo partly drawn)
7. [C-]#[N+]C(=C\c1ccc(O)cc1)/C(=C/c1ccc(O)cc1)[N+]#[C-]

stdout:
1: > 100 µM; 2: > 100 µM; 3: > 100 µM; 4: > 100 µM; 5: > 100 µM; 6: 48.1 µM; 7: > 100 µM

Hi, could you look up TGI for each item in my list?
1. COc1ccc2c(=O)c3c([nH]c2c1)OCC3=O
2. Fc1ccc(-c2ncn(CCCN3CCOCC3)c2-c2ccncc2)cc1
3. O=c1[nH]nc(CNc2ccc(Cl)cc2Cl)c2ccccc12

stdout:
["> 100 µM", "> 25 µM", "38.1 µM"]

====

Test system: U251 CNS
assay.procedure: NCI tumour cell line growth inhibition, 48 h
Exercise: state measured TGI for each of the compounds provided.

Hi, could you look up TGI for each item in my list?
1. CC(=O)Nc1ccc(OC(C)=O)cc1
2. Cc1cc(C#N)c(Nc2ccc(F)cc2[N+](=O)[O-])s1
3. O=C(O)CCSC(=O)Nc1cccc2ccccc12
4. OCC(O)COCn1cc(Cn2ncc3c(NCc4ccccc4)ncnc32)nn1 (stereo unspecified)

stdout:
1: > 37.7 µM; 2: > 100 µM; 3: > 100 µM; 4: > 100 µM

Hi, could you look up TGI for each item in my list?
1. Cc1cc2c(=O)c(C)n[nH]c2c(C#N)c1C
2. CN/N=C(\C)C(CN1CCCCC1)C(C1=C(O)c2ccccc2OC1)c1ccccc1 (stereo unspecified)
3. CC1(C)CCc2c(c(N=Nc3ccccc3F)c3ccccc3c2O)O1
4. CC(C)CCCCCCCCCCCCC(=O)NCC(=O)NC1C(C)OC(Nc2ncnc3nc[nH]c23)C(O)C1O (stereo unspecified)
5. C=CCc1cccc2cc(C(=O)Nc3ccc(C)cc3)c(=N)oc12
6. O=c1oc2ccc(Cl)cc2c(=O)n1-c1ccc(F)cc1F
7. COc1ccccc1NC(=O)C1=C(C)NC(C)=C(C(=O)Nc2ccccc2OC)C1c1ccccc1Cl

stdout:
1: > 100 µM; 2: > 100 µM; 3: 37 µM; 4: 0.038 µM; 5: > 100 µM; 6: 36.7 µM; 7: > 100 µM

====

Exercise: state measured TGI for each of the compounds provided.
System: NCI-H23 lung
assay.procedure: NCI tumour cell line growth inhibition, 48 h
Peptide text beside a SMILES is read from it. * marks the point of attachment. X34 = O=C(c1ccc(-c2ccc(Cl)cc2Cl)o1)*

Below, 4 compounds whose answers are already recorded.
COC(=O)C(CC(C)C)NC(=O)C(Cc1ccccc1)NC(=O)C1CCCN1C(=O)C(CO)NC(=O)c1ccc(-c2ccc(Cl)cc2Cl)o1 (stereo not given) (X34-SPFL-OMe; configuration not given here)    97.6 µM
C1C[OH+]CCNCC[OH+]CC[OH+]CCN1.N.[Cl-].[Pt+4]    > 100 µM
O=c1oc2cc(O)ccc2c2oc3cc(O)ccc3c12    > 125 µM
Cc1cc(C#N)c(Nc2ccc(F)cc2[N+](=O)[O-])s1    > 100 µM

As a next step, examine the compound that follows.
stdin: Give the measured TGI of `O=C(O)/C=C/c1ccc(OS(=O)(=O)O)cc1` .
stdout: > 100 µM

====

Tested on: 786-0 renal
assay.procedure: NCI tumour cell line growth inhibition, 48 h
Exercise: state measured GI50 for each of the compounds provided.

O=C(Nc1ccccc1Cl)c1ccc(NC2=C(Cl)C(=O)N(C3CCCCC3)C2=O)cc1    9.64 µM

Hi, could you look up GI50 for each item in my list?
1. O=C1c2ccccc2C(=O)c2c1oc1c2c(=O)[nH]c2ccc(Cl)cc21
2. CC(C)=Cc1cccc2[nH]c(O)c(N=Nc3ccc(S(N)(=O)=O)cc3)c12
3. [Co].[O-]c1cccnc1C=Nc1ccccc1.[OH3+]
4. Cc1nc2ccccc2c(/C=C/c2ccccc2)c1C(=O)/C=C/c1ccc(C(F)(F)F)cc1

stdout:
["0.223 µM", "9.07 µM", "> 100 µM", "1.22 µM"]

====

System: K-562 leukemia
assay.procedure: NCI tumour cell line growth inhibition, 48 h
assay.endpoint: TGI

Below, 5 molecules whose answers are already recorded.
CC(=O)Nn1cnc(C(=N)C#N)c1N    > 100 µM
C=CCOc1ccc(N)c([N+](=O)[O-])c1    > 100 µM
C#CCOC(=O)/C=C/C(=O)Oc1ccc2c(C)cc(=O)oc2c1    > 100 µM
c1cc(C2=NCCO2)c2ccsc2c1    > 100 µM
[N-]=[N+]=Nc1c(-c2ccccc2)c(=O)n(-c2ccccc2)c2ccccc12    > 100 µM

Hi, could you look up TGI for each item in my list?
1. Cc1nc(-n2nc(-c3ccccc3)cc2-c2ccccc2)sc1C(=O)/C=C/c1ccc([N+](=O)[O-])cc1
2. C=CCn1c(=O)c(Br)nn(CCOCP(=O)(OCC)OCC)c1=O
3. CN(C)CCN(C)C(=O)c1cccc2cccc(C(=O)O)c12
4. COc1ccc(C(=O)CCN(C)C)c2ccccc12

stdout:
1: > 70.6 µM; 2: > 100 µM; 3: > 100 µM; 4: 60 µM

Hi, could you look up TGI for each item in my list?
1. CNC(=O)N1CN(c2ccccc2)C2(CCN(Cc3ccccc3)CC2)C1=O
2. CC(ON1[C@](C)(c2ccccc2)CC[C@@]1(C)c1ccccc1)c1ccccc1 (stereo partly specified)

stdout:
["> 100 µM", "> 100 µM"]
